Values compiled from ChEMBL document CHEMBL3352392.

As a worked illustration, we turn to IC50 data collected for Genome polyprotein (dengue virus type 2, UniProt P12823).
Report the figure in µM without appending any unit label.

Mol	IC50 [µM]
N#C/C(=C\c1cn(Cc2ccccc2)c2ccccc12)C(=O)Nc1nnc(C(F)(F)F)s1	10.1
COc1ccc(CSc2nnc(NC(=O)/C(C#N)=C/c3cn(Cc4ccccc4)c4ccccc34)s2)cc1	3.44

Now take the following compound into account.
Q. Output measured IC50 for this item: N#C/C(=C\c1cn(Cc2ccccc2)c2ccccc12)C(=O)Nc1nnc(SCc2ccc(F)cc2)s1
A. 3.72

====

# Target Desc: Genome polyprotein (dengue virus type 2) (UniProt P12823)
# Method Summary: Inhibition of Dengue virus 2 NS2B/NS3 protease using Bz-Nle-Lys-Arg-Arg-AMC as substrate preincubated at 20 uM for 30 mins before substrate addition by fluorescence assay
Value Type: inhibition (%)
Report the figure in % without appending any unit label.

// solved cases for inhibition follow
Mol	Unit Text	inhibition
N#C/C(=C\c1cn(Cc2ccc(C(F)(F)F)cc2)c2ccccc12)C(=O)Nc1nnc(SCc2ccccc2)s1	%	45.9
N#C/C(=C\c1cn(Cc2ccccc2)c2ccccc12)C(=O)Nc1nnc(SCc2ccccc2)s1	%	79
N#C/C(=C\c1cn(Cc2ccccc2C#N)c2ccccc12)C(=O)Nc1nnc(SCc2ccccc2)s1	%	85.8
N#C/C(=C\c1cn(Cc2ccccc2)c2ccccc12)C(=O)Nc1nnc(SCc2ccc(Br)cc2)s1	%	65.8
Cc1ccccc1CSc1nnc(NC(=O)/C(C#N)=C/c2cn(Cc3ccccc3)c3ccccc23)s1	%	69.4

Now take the following compound into account.
Q. Output measured inhibition for this item: N#C/C(=C\c1cn(Cc2ccc(C(F)(F)F)cc2C(F)(F)F)c2ccccc12)C(=O)Nc1nnc(SCc2ccccc2)s1
A. 54.1
